These entries and their values trace back to patent US20240400584A1.

I'd appreciate it if you could supply AC50 values for the items below.
- System: MYB
- experimental.details: RT-qPCR splicing assay, MYB AJ/CJ mRNA
- Format: cell-based
- conditions.used: Homo sapiens, increase in alternative junction mRNA, A673 or K562 cells, 24 hours

What the record says about C[C@H]1C[C@H](N(C)c2ccc3c(c2)OCc2cc(-c4cn[nH]c4)ccc2-3)CCN1 [Compound 102] : AC50 is 1 to 10 µM

What the record says about CN1CCCC2(CCN2c2ccc3c(n2)OCc2cc(-c4cn[nH]c4)ccc2-3)C1 (stereo not shown) [Compound 222] : AC50 is > 10 µM

What the record says about CN(c1ccc2c(n1)OCc1cc(-n3nccn3)ccc1-2)C1CC2CC(F)(F)C(C1)N2 (stereo not shown) [Compound 239] : AC50 is 1 to 10 µM

What the record says about COc1cc(-c2ccc3c(c2)COc2nc(N4CCN[C@@H](C)C4)ccc2-3)cnn1 [Compound 287] : AC50 is 1 to 10 µM

====

- Test system: HTT
- experimental.details: RT-qPCR splicing assay, HTT AJ/CJ mRNA
- Assay type: cell-based, human
- conditions.used: Homo sapiens, 24 h, decrease in canonical junction mRNA, A673 or K562 cells
- Experimental: Compounds described herein were used to modulate RNA transcript abundance in cells. The expression of a target mRNA was measured by detecting the formation of an exon-exon junction in the canonical transcript (CJ). A compound mediated exon-inclusion event was detected by observing an increase in formation OF A new junction with an alternative exon (AJ). Real-time qPCR assays were used to detect these splicing switches and interrogate the potency of various compounds towards different target Genes. […]
metric: IC50

Kindly note: HTT, COc1cc(-c2ccc3c(c2)COc2nc(N4CCN[C@@H](C(C)(C)C)C4)ccc2-3)cnn1 , IC50 value reported: < 0.1 µM

Kindly note: HTT, COc1cc(-c2ccc3c(c2)COc2nc(N4CCC(NCC5CC5)C4)ccc2-3)cnn1 (stereo not shown) , IC50 value reported: 0.1 to 1 µM

Kindly note: HTT, c1cnn(-c2ccc3c(c2)COc2nc(O[C@@H]4C[C@H]5CCC[C@@H](C4)N5)ccc2-3)c1 , IC50 value reported: 0.1 to 1 µM

Kindly note: HTT, c1cnn(-c2ccc3c(c2)COc2nc(N[C@@H]4C[C@H]5CC[C@@H](C4)N5)ccc2-3)c1 , IC50 value reported: 0.1 to 1 µM

Kindly note: HTT, COc1cc(-c2cc3c(cc2F)-c2ccc(O[C@@H]4C[C@H]5CC[C@@H](C4)N5)nc2OC3)cnn1 , IC50 value reported: < 0.1 µM

Kindly note: HTT, COc1cc(-c2cc3c(cc2F)-c2ccc(OC4CC(C)(C)NC(C)(C)C4)nc2OC3)cnn1 , IC50 value reported: 0.1 to 1 µM

Kindly note: HTT, CN(c1ccc2c(n1)OCc1cc(-c3cn[nH]c3)ccc1-2)C1CCNCC1 , IC50 value reported: 0.1 to 1 µM

Kindly note: HTT, c1cnn(-c2ccc3c(c2)COc2nc(N(C4CCNCC4)C4CC4)ccc2-3)c1 , IC50 value reported: 1 to 10 µM

Kindly note: HTT, COc1cc(-c2ccc3c(c2)COc2nc(O[C@@H]4C[C@H]5CC[C@@H](C4)N5)ccc2-3)cnn1 , IC50 value reported: < 0.1 µM

Kindly note: HTT, c1cnn(-c2ccc3c(c2)COc2nc(N4CCNCC4)ccc2-3)c1 , IC50 value reported: > 10 µM

Kindly note: HTT, CN(c1ccc2c(n1)OCc1cc(-c3cnn(C)c3)ccc1-2)[C@@H]1C[C@H]2CC[C@@H](C1)N2 , IC50 value reported: < 0.1 µM

Kindly note: HTT, COc1cc(-c2ccc3c(c2)COc2nc(N4CCC(N5CCC5)C4)ccc2-3)cnn1 (stereo not shown) , IC50 value reported: 0.1 to 1 µM

Kindly note: HTT, CCN(c1ccc2c(n1)OCc1cc(-n3cccn3)ccc1-2)C1CCNCC1 , IC50 value reported: > 10 µM

Kindly note: HTT, COc1cc(-c2ccc3c(c2)COc2nc(N4CCC(N(C)C)C4)ccc2-3)cnn1 (stereo not shown) , IC50 value reported: 0.1 to 1 µM

Kindly note: HTT, CC1(C)CC(Oc2ccc3c(n2)OCc2cc(-n4cccn4)ccc2-3)CC(C)(C)N1 , IC50 value reported: 1 to 10 µM

Kindly note: HTT, COc1cc(-c2ccc3c(c2)COc2nc(N(C)[C@@H]4C[C@H]5COC[C@@H](C4)N5)ccc2-3)cnn1 , IC50 value reported: < 0.1 µM

====

- Test system: HTT
- experimental.details: RT-qPCR splicing assay, HTT AJ/CJ mRNA
- Assay type: cell-based, human
- conditions.used: Homo sapiens, 24 h, decrease in canonical junction mRNA, A673 or K562 cells
metric: IC50

What the record says about CC1(C)CC(Nc2ccc3c(c2)COc2cc(-n4cccn4)ccc2-3)CC(C)(C)N1 : IC50 is > 10000 nM

What the record says about CN(c1ccc2c(n1)OCc1cc(-n3cccn3)ccc1-2)C1CC(C)(C)NC(C)(C)C1 : IC50 is 1000 to 10000 nM

What the record says about CN(c1ccc2c(n1)OCc1cc(-n3ccnn3)ccc1-2)[C@@H]1C[C@H]2CC[C@@H](C1)N2 : IC50 is 100 to 1000 nM

What the record says about CN(c1ccc2c(n1)CCOc1cc(-c3cn[nH]c3)ccc1-2)C1CC(C)(C)NC(C)(C)C1 : IC50 is 100 to 1000 nM

What the record says about Cc1ncc(-c2ccc3c(c2)COc2nc(N(C)[C@@H]4C[C@H]5CC[C@@H](C4)N5)ccc2-3)o1 : IC50 is < 100 nM

What the record says about COc1cc(-c2ccc3c(c2)COc2cc(N4CCC(NC(C)(C)C)C4)ncc2-3)cnn1 (stereo not drawn) : IC50 is 100 to 1000 nM

What the record says about CC(C)(C)NC1CCN(c2ccc3c(n2)OCc2cc(-c4cnnc(C5CC5)c4)ccc2-3)C1 (stereo not drawn) : IC50 is > 10000 nM

What the record says about CC1(NC2CCN(c3ccc4c(n3)OCc3cc(-c5cn[nH]c5)ccc3-4)C2)CC1 (stereo not drawn) : IC50 is 100 to 1000 nM

What the record says about CN(c1ccc2c(n1)OCc1cc(-n3cccn3)ccc1-2)[C@H]1C[C@]2(C)CC[C@](C)(C1)N2 : IC50 is < 100 nM

What the record says about CC(C)Oc1cc(-c2ccc3c(c2)COc2nc(N4CCC(NC(C)(C)C)C4)ccc2-3)cnn1 (stereo not drawn) : IC50 is > 10000 nM

What the record says about FC1(F)CC2CC(Oc3ccc4c(n3)OCc3cc(-c5cn[nH]c5)ccc3-4)CC1N2 (stereo not drawn) : IC50 is 1000 to 10000 nM

What the record says about COc1cc(-c2ccc3c(c2)COc2nc(N4CCC(NC(C)(C)C(C)C)C4)ccc2-3)cnn1 (stereo not drawn) : IC50 is < 100 nM

What the record says about c1cc2c(cc1-c1cn[nH]c1)COc1nc(N[C@@H]3C[C@H]4CC[C@@H](C3)N4)cnc1-2 : IC50 is 100 to 1000 nM

What the record says about COc1cc(-c2ccc3c(c2)COc2nc(N4CCC(NC5CC5)C4)ccc2-3)cnn1 (stereo not drawn) : IC50 is 100 to 1000 nM

What the record says about COc1cc(-c2ccc3c(c2)COc2nc(O[C@@H]4C[C@H]5COC[C@@H](C4)N5)ccc2-3)cnn1 : IC50 is < 100 nM

What the record says about CC(C)(C)N[C@@H]1CCN(c2ccc3c(n2)OCc2cc(-c4cn[nH]c4)ccc2-3)C1 : IC50 is < 100 nM

What the record says about CN(c1ccc2c(n1)OCc1cc(-c3ccc(=O)n(C)c3)ccc1-2)[C@@H]1C[C@H]2CC[C@@H](C1)N2 : IC50 is 100 to 1000 nM

What the record says about CC(C)(C)NC1CCN(c2ccc3c(n2)OCc2cc(-c4cn[nH]c4)ccc2-3)C1 (stereo not drawn) : IC50 is < 100 nM

What the record says about COc1cc(-c2ccc3c(c2)COc2nc(N4CCN[C@H](C(C)(C)C)C4)ccc2-3)cnn1 : IC50 is 100 to 1000 nM

What the record says about COc1cc(-c2ccc3c(c2)COc2nc(N(C)C4CC(C)(C)NC(C)(C)C4)ncc2-3)cnn1 : IC50 is 100 to 1000 nM

What the record says about COc1cc(-c2ccc3c(c2)COc2nc(N4CCC(NC(C)(C)C)C4)ccc2-3)cnn1 (stereo not drawn) : IC50 is < 100 nM

What the record says about Cc1cnc(-c2ccc3c(c2)COc2nc(N(C)[C@@H]4C[C@H]5CC[C@@H](C4)N5)ccc2-3)o1 : IC50 is 100 to 1000 nM

What the record says about COc1cc(-c2ccc3c(c2F)COc2nc(N(C)[C@@H]4C[C@H]5CC[C@@H](C4)N5)ccc2-3)cnn1 : IC50 is < 100 nM

What the record says about CC1(C)CC(Nc2ccc3c(n2)COc2cc(-n4cccn4)ccc2-3)CC(C)(C)N1 : IC50 is 1000 to 10000 nM

What the record says about CN(c1ccc2c(n1)OCc1cc(-c3cn[nH]c3)ccc1-2)C1CC(C)(C)NC(C)(C)C1 : IC50 is 100 to 1000 nM

What the record says about CN(c1ccc2c(c1)OCc1cc(-c3cn[nH]c3)ccc1-2)[C@@H]1C[C@H]2CC[C@@H](C1)N2 : IC50 is > 10000 nM

What the record says about Fc1cc2c(cc1-c1cn[nH]c1)COc1nc(O[C@@H]3C[C@H]4CC[C@@H](C3)N4)ccc1-2 : IC50 is < 100 nM

What the record says about [2H]C([2H])([2H])N(c1ccc2c(n1)OCc1cc(-n3cccn3)ccc1-2)C1C[C@H]2CCC[C@@H](C1)N2 (stereo partly drawn) : IC50 is < 100 nM

What the record says about COc1cc(-c2ccc3c(c2)COc2nc(N4CCC(NC5(C)CCC5)C4)ccc2-3)cnn1 (stereo not drawn) : IC50 is < 100 nM

What the record says about COc1cc(-c2ccc3c(c2)COc2nc(N4CC[C@@H](NC(C)(C)C)C4)ncc2-3)cnn1 : IC50 is < 100 nM
